Tested on: MV-4-11
Assay: Antiproliferation assay MV-4-11 (Assay 7)
Type: cell-based
Conditions: Homo sapiens, MV4-11, 72 h, MV-4-11 cells, CellTiter-Glo, single determinations, read-out: IC50 Antiproli MV-4-11
Procedure: Assessment of the Anti-Proliferative Effect of Compounds in Different Cell Lines The impact of compounds on the proliferation of different cell lines was assessed using the CellTiter-Glo® Luminescent Cell Viability reagent from Promega (G7573). In parallel, cells were plated in a reference (day 0) plate for time zero determination. Rim wells were excluded. […] After 72 h incubation, the treated plates were measured in the same way as the day 0 plate mentioned above.
Counter-ions that a name gives are not always drawn.
measured.metric: pIC50
In plain terms, pIC50 is the concentration in mol/L turned into minus its base-10 logarithm.

// worked examples, pIC50 included
>  <molecule>
Cc1nn(C)c2c1-c1c(F)ccc3c(CCCOc4ccc(F)c5ccccc45)c(C(=O)O)n(c13)CCCCOC2 (racemic) [Example 33]

>  <pIC50>
4.95

$$$$
>  <molecule>
CCc1nn(C)c2c1-c1c(F)ccc3c(CCCOc4cccc5ccccc45)c(C(=O)O)n(c13)CCCCOC2 (racemic) [Example 37]

>  <pIC50>
5.08

$$$$
>  <molecule>
Cc1nn(C)c2c1-c1c(F)ccc3c(CCCOc4cccc5cc(F)ccc45)c(C(=O)O)n(c13)CCCCOC2 (racemic) [Example 32]

>  <pIC50>
5.31

$$$$
>  <molecule>
CCc1nn(C)c2c1-c1c(F)ccc3c(CCCOc4cccc5ccccc45)c(C(=O)O)n(c13)C/C=C\COC2 (racemic) [Example 11]

>  <pIC50>
5.12

$$$$
>  <molecule>
Cc1cc(OCCCc2c(C(=O)O)n3c4c(c(F)ccc24)-c2c(nn(C)c2C)COCCCC3)cc(C)c1Cl (racemic) [Example 20]

>  <pIC50>
5.09

$$$$

Q: Which measured pIC50 value corresponds to CCc1c2c(nn1C)COCCCCn1c(C(=O)O)c(CCCOc3cc(C)c(Cl)c(C)c3)c3ccc(F)c-2c31 (racemic) [Example 31] ?
Result: 5.22

Q: Which measured pIC50 value corresponds to Cc1c2c(nn1C)CNCCCCn1c(C(=O)O)c(CCCOc3cccc4ccccc34)c3ccc(F)c-2c31 (racemic) [Example 47, trifluoroacetic acid salt] ?
Result: 5.99

Q: Which measured pIC50 value corresponds to CCc1c2c(nn1C)COCCCCn1c(C(=O)O)c(CCCOc3cccc4c3CCCC4)c3ccc(F)c-2c31 (racemic) [Example 29] ?
Result: 5.69

Q: Which measured pIC50 value corresponds to CCc1c2c(nn1C)COCCCCn1c(C(=O)O)c(CCCOc3cccc4ccccc34)c3ccc(F)c-2c31 (racemic) [Example 6] ?
Result: 5.42

====

Below, each of the compounds is paired with its reported EC50 value.
Tested on: SUDHL5
Assay: Induction of caspase-3/7 activity, SUDHL5 (Assay 4)
Type: cell-based
Conditions: Homo sapiens, SU-DHL-5, 3 h, SUDHL5 cells, Caspase-Glo 3/7, median
From the text: Induction of Caspase-3/7 Activity upon Treatment of Cells with Selected Compounds The BH3-domain of MCL-1 sequesters pro-apoptotic proteins, thereby inhibiting apoptosis. In contrast, MCL-1 inhibitors are expected to antagonize this effect leading to an increase in apoptosis, which can be determined by measuring the activity of caspase-3/7. […] For the evaluation of the results, the background measured with “medium-only” was subtracted from all other values. […]
Reply numerically in nM, unit not repeated.

// worked examples, EC50 included
>  <compound>
CCc1nn(C)c2c1-c1c(F)ccc3c(CCCOc4cccc5c4CCC5)c(C(=O)O)n(c13)CCCCOC2 (racemic)

>  <EC50 (nM)>
1400

$$$$
>  <compound>
Cc1nn(C)c2c1-c1c(F)ccc3c(CCCOc4cccc5cc(F)ccc45)c(C(=O)O)n(c13)CCCCOC2 (racemic)

>  <EC50 (nM)>
800

$$$$
>  <compound>
CCc1nn(C)c2c1-c1c(F)ccc3c(CCCOc4cccc5ccccc45)c(C(=O)O)n(c13)CCCCOC2 (racemic)

>  <EC50 (nM)>
1700

$$$$
>  <compound>
Cc1c2c(nn1C)COCCCCn1c(C(=O)O)c(CCCOc3cccc4ccccc34)c3ccc(F)c-2c31 (racemic)

>  <EC50 (nM)>
600

$$$$

Q: I'm curious: which EC50 was measured for Cc1cc(OCCCc2c(C(=O)O)n3c4c(c(F)ccc24)-c2c(C)nn(C)c2COCCCC3)cc(C)c1Cl (racemic) tested on SUDHL5?
Result: 3500
